experimental.target: VIM-2 (Escherichia coli)
experiment.description: Enzyme inhibition assay, MβL VIM-2, cefazolin as substrate
Assay type: biochemical
test.context: 25 °C, 30 min premix
Field: IC50. Provide a value for each of the compounds that follow.
Answers are plain numbers, in µM.

> print(dat)
                               input.smiles       experimental.target  obs.value
1  O=C(CSc1nnc(-c2ccccc2O)s1)Nc1ccc(OC(F)(F)F)cc1  VIM-2 (Escherichia coli)        2.2

Okay, now this compound:
INPUT: I am curious: what IC50 value has been reported for O=C(CSc1nnc(-c2ccccc2O)s1)Nc1c(F)cccc1F ?
OUTPUT: 19.2
